Assay: NCI Yeast Anticancer Drug Screen. Data for the cln2 rad14 strain (AID 165);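 further: 0% = growth equal to vehicle treated cultures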
Conditions: S. cerevisiae cln2 rad14 strain, at 5.0 µM (retest, dose inferred, filed as 0.5), active compounds read high
Description: Growth inhibition of yeast strains with defined genetic alterations is measured as a screen for potential anti-cancer activity. Selected strains with alterations in DNA damage repair or cell cycle control were exposed to compounds and growth inhibition was measured relative to vehicle treated controls. The strain used in this assay is cln2 rad14
About 79,000 compounds went through this panel and 15% of them were active in at least one assay; those are over-represented in the sample as a whole.
Consider the following molecules and their measured growth inhibition readings.
Value expressed in %; do not type the unit.

Please review the entries below; each comes with its answer.
[[record]]
molecule = "O=C(CI)c1ccc[nH]1"
unit_abbrev = "%"
observed = 96

[[record]]
molecule = "CCCCCC(Cn1ccnc1)c1ccc(Cl)cc1Cl (centres undefined)"
unit_abbrev = "%"
observed = 72


# input molecule: CN(CCO)CCO ; wanted: its growth inhibition
# output 1

# input Next: c1ccncc1
# output 0

Values compiled from PubChem BioAssay (NCI).
